Recorded inhibition for the following compounds
Molecular target: Protein farnesyltransferase (PFT) (Plasmodium falciparum) (UniProt Q5EI73+Q5EI74)
Assay: Inhibition of Plasmodium falciparum PFT at 5 nM
Measurement name: inhibition (%)

Cn1cncc1CN(CCN(Cc1ccccc1)S(=O)(=O)c1ccccc1)c1ccc(C#N)cc1 = 18
Cn1cnc(S(=O)(=O)N(CCN(Cc2cncn2C)c2ccc(C#N)cc2)CC2CCCCC2)c1 = 63
Cn1cnc(S(=O)(=O)N(CCN(Cc2cncn2C)c2ccc(C#N)cc2)CC(=O)NC(C)(C)C)c1 = 4
CN(C)c1cccc2c(S(=O)(=O)N(CCN(Cc3cncn3C)c3ccc(C#N)cc3)Cc3ccccc3)cccc12 = 6
Cn1cnc(S(=O)(=O)N(CCN(Cc2cncn2C)c2ccc(C#N)cc2)Cc2cccc(C#N)c2)c1 = 45
Cn1cnc(S(=O)(=O)N(CCN(Cc2cncn2C)c2ccc(C#N)cc2)Cc2ccncc2)c1 = 22
CC(=O)N(CCN(Cc1cncn1C)c1ccc(C#N)cc1)Cc1ccccc1 = 0
Cn1cnc(S(=O)(=O)N(CCN(Cc2cncn2C)c2ccc(C#N)cc2)CC2CCN(C(=O)OC(C)(C)C)CC2)c1 = 81
Cc1ccc(CN(CCN(Cc2cncn2C)c2ccc(C#N)cc2)S(=O)(=O)c2cn(C)cn2)cc1 = 45
CC(=O)N1CCC(CN(CCN(Cc2cncn2C)c2ccc(C#N)cc2)S(=O)(=O)c2cn(C)cn2)CC1 = 8
Cc1ccccc1CN(CCN(Cc1cncn1C)c1ccc(C#N)cc1)S(=O)(=O)c1cn(C)cn1 = 95
Cn1cnc(S(=O)(=O)N(CCN(Cc2cncn2C)c2ccc(C#N)cc2)Cc2ccc(-n3cccc3)cc2)c1 = 39
Cn1cncc1CN(CCN(Cc1ccccc1)S(=O)(=O)c1ccccn1)c1ccc(C#N)cc1 = 64
Cc1cccc(CN(CCN(Cc2cncn2C)c2ccc(C#N)cc2)S(=O)(=O)c2cn(C)cn2)c1 = 61
Cn1cnc(S(=O)(=O)N(CCN(Cc2cncn2C)c2ccc(C#N)cc2)Cc2ccccn2)c1 = 64
Cn1cnc(S(=O)(=O)N(CCN(Cc2cncn2C)c2ccc(Br)cc2)Cc2ccccc2)c1 = 70
Cn1cnc(S(=O)(=O)N(CCN(Cc2cncn2C)c2ccc(C#N)cc2)Cc2ccc(-c3ccccc3)cc2)c1 = 10
Cn1cnc(S(=O)(=O)N(CCN(Cc2cncn2C)c2ccc(C#N)cc2)CC2CCOCC2)c1 = 28
Cn1cnc(S(=O)(=O)N(CCN(Cc2cncn2C)c2ccc(C#N)cc2)Cc2cccc(-c3ccccc3)c2)c1 = 56
C=C(C)CN(CCN(Cc1cncn1C)c1ccc(C#N)cc1)S(=O)(=O)c1cn(C)cn1 = 6
Cc1ccccc1CN(CCN(Cc1cncn1C)c1ccc(-c2ccccc2)cc1)S(=O)(=O)c1cn(C)cn1 = 49
Cn1cncc1CN(CCN(Cc1ccccc1)S(=O)(=O)c1cccs1)c1ccc(C#N)cc1 = 17
Cn1cnc(S(=O)(=O)N(CCN(Cc2cncn2C)c2ccc(C#N)cc2)Cc2cccnc2)c1 = 18
Cn1cnc(S(=O)(=O)N(CCN(Cc2cncn2C)c2ccc(C#N)cc2)Cc2cccc(-n3cccc3)c2)c1 = 37
CC(C)C(=O)N(CCN(Cc1cncn1C)c1ccc(C#N)cc1)Cc1ccccc1 = 0
Cn1cnc(S(=O)(=O)N(CCN(Cc2cncn2C)c2ccc(C#N)cc2)CC2CCNCC2)c1 = 5
CC(C)C(=O)N1CCC(CN(CCN(Cc2cncn2C)c2ccc(C#N)cc2)S(=O)(=O)c2cn(C)cn2)CC1 = 57
Cn1cnc(S(=O)(=O)N(CCN(Cc2cncn2C)c2ccc(C#N)cc2)Cc2ccccc2)c1 = 86
C=C(Br)CN(CCN(Cc1cncn1C)c1ccc(C#N)cc1)S(=O)(=O)c1cn(C)cn1 = 25
Cn1cncc1CN(CCN(Cc1ccccc1)S(=O)(=O)c1cccc2cccnc12)c1ccc(C#N)cc1 = 14
